biological target: TcMCU-EMRE (TcMCU-EMREEM2) (Tribolium castaneum); construct: MCU without N-terminal domain (residues 1-168 removed), covalently fused to EMRE by flexible peptide linker; tetramer; Venus fusion removed by PreScission cleavage; purified, reconstituted in liposomes and planar bilayer; with Essential MCU regulator, mitochondrial; assay: planar lipid bilayer electrophysiology, inhibition of macroscopic Ca2+ currents; conditions: symmetric 40 mM CaCl2, -160 mV, pH 7.6, 22-24 C; RuRed titrated in trans chamber with 1 uM RuRed in cis; IMS-side blocker
Sequence (D6WIX5 169-367): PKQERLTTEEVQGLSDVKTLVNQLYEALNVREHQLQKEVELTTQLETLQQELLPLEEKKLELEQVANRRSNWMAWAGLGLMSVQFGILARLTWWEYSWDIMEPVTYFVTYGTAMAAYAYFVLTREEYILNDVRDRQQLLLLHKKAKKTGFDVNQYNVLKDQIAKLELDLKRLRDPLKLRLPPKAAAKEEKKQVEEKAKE
Sequence (D6X268 whole entry partner, the tested form may be a part): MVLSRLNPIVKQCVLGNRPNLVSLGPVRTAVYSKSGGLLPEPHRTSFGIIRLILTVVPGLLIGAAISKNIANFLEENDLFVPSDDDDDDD
MEASUREMENT LABEL: IC50

get_value(item= `Cl.Cl.Cl.Cl.Cl.Cl.N.N.N.N.N.N.N.N.N.N.N.N.N.N.[O-2].[O-2].[Ru+3].[Ru+3].[Ru+4]` , readout=IC50) returns ~0.04 µM
